Test target: mincle minimal CRD (bovine) (Bos taurus, UniProt E1BHM0, I174T)
Construct: minimal C-type carbohydrate recognition domain, N-terminally truncated, lacks disulfide 4; E. coli, renatured from inclusion bodies
Sequence (E1BHM0 79-211 I174T): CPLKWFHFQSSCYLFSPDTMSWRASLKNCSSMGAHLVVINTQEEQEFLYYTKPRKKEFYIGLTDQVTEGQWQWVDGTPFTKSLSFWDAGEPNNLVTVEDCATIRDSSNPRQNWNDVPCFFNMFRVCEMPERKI
Procedure details: competition with […]-mannose-BSA on immobilized CRD
Test readout: Ki (µM)
Write the value in µM as a bare number.

Observed Ki, mincle minimal CRD (bovine) (Bos taurus, UniProt E1BHM0, I174T), CCCCCCCCCCCC(=O)OC[C@H]1O[C@H](O[C@H]2O[C@H](CO)[C@@H](O)[C@H](O)[C@H]2O)[C@H](O)[C@@H](O)[C@@H]1O [Monododecanoate] : 3.1

Here CCCCCC(=O)OC[C@H]1O[C@H](O[C@H]2O[C@H](COC(=O)CCCCC)[C@@H](O)[C@H](O)[C@H]2O)[C@H](O)[C@@H](O)[C@@H]1O [Dihexanoate] was tested on mincle minimal CRD (bovine) (Bos taurus, UniProt E1BHM0, I174T), and its Ki came to 8.2

// compound CCCCCCCCCC(=O)OC[C@H]1O[C@H](O[C@H]2O[C@H](CO)[C@@H](O)[C@H](O)[C@H]2O)[C@H](O)[C@@H](O)[C@@H]1O [Monodecanoate] , assay mincle minimal CRD (bovine) (Bos taurus, UniProt E1BHM0, I174T), Ki value: 5.1

Param item: CC(C)C(=O)OC[C@H]1O[C@H](O[C@H]2O[C@H](COC(=O)C(C)C)[C@@H](O)[C@H](O)[C@H]2O)[C@H](O)[C@@H](O)[C@@H]1O [Diisobutyrate] ; param system: mincle minimal CRD (bovine) (Bos taurus, UniProt E1BHM0, I174T); output Ki: 370

Per the reported mincle minimal CRD (bovine) (Bos taurus, UniProt E1BHM0, I174T) data, CCCCCCC(=O)OC[C@H]1O[C@H](O[C@H]2O[C@H](CO)[C@@H](O)[C@H](O)[C@H]2O)[C@H](O)[C@@H](O)[C@@H]1O [Monoheptanoate] has Ki of 137

CCCCC(=O)OC[C@H]1O[C@H](O[C@H]2O[C@H](COC(=O)CCCC)[C@@H](O)[C@H](O)[C@H]2O)[C@H](O)[C@@H](O)[C@@H]1O [Divalerate] on mincle minimal CRD (bovine) (Bos taurus, UniProt E1BHM0, I174T) gives Ki = 59

# credit: paper PMC5076529
